System: T-47D
Assay: NCI-60 single-dose antiproliferative assay (SRB)
Format: cell-based
Details: Homo sapiens, T47D, 10 μM single dose, Breast cancer, read-out: Cell Growth inhibition Percent
Kind request: treat 8% as inclusive, so inhibition at 10 µM at 8% or higher is satisfied, anything lower is not satisfied.

[
  {
    "MOLECULE": "NS(=O)(=O)N/C=C1/C(=O)Nc2ccccc21 [Compound 5, 3-(sulfamidmethylene)indoline-2-one]",
    "TESTED_ON": "T-47D",
    "LABEL": "not satisfied"
  },
  {
    "MOLECULE": "O=C(Nc1ccc(NC=C2C(=O)Nc3ccccc32)cc1)Nc1nccs1 [Compound 15c]",
    "TESTED_ON": "T-47D",
    "LABEL": "satisfied"
  },
  {
    "MOLECULE": "NS(=O)(=O)c1ccc(NCc2ccc(NC=C3C(=O)Nc4ccccc43)cc2)cc1 [Compound 11a]",
    "TESTED_ON": "T-47D",
    "LABEL": "not satisfied"
  }
]

Request: Item O=C1Nc2ccccc2C1=CNc1ccc(CNc2ccc(S(=O)(=O)Nc3ncccn3)cc2)cc1 [Compound 11b] with inhibition at 10 µM of 8% or above?
Response: satisfied

Request: What do you have for O=C1Nc2ccccc2C1=CNc1ccc(C(=O)C=CNc2ccc(S(=O)(=O)Nc3ncccn3)cc2)cc1 [Compound 13b] ?
Response: not satisfied

Request: What do you have for NS(=O)(=O)c1nnc(NC=C2C(=O)Nc3ccccc32)s1 ?
Response: satisfied
